B1: library; a variant is named by its letters at N, in order (parent)
chain: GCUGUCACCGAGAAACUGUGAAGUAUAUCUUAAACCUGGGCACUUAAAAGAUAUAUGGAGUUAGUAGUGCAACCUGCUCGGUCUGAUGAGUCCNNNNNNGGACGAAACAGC

Variants of: B1
Assay: FACS-Seq fitted mean relative fluorescence mCherry/BFP without ligand (log10 relative fluorescence); HEK293T; ligand: cyclic di-GMP (c-di-GMP-II aptamer); higher = higher reporter protein expression
Conditions: ligand present: no
In this section we review reported FACS-Seq fitted mean (log10) values for a set of variants.
Write the number on its own, no unit after it.

Known FACS-Seq fitted mean (log10) results, listed for orientation:
In [3]: df
Out[3]:
   mutation  measured
0    AUAGGU    -0.384
1    AACACA    -0.289
2    CACUUG    -0.104
3    CCAGUA    -0.229
4    UGAUAU    -0.406
5    CUCCUA   -0.0767

*Q* Please report the recorded FACS-Seq fitted mean (log10) for AAGGUU .
*A* -0.341

*Q* Please report the recorded FACS-Seq fitted mean (log10) for UAACGU .
*A* -0.388

*Q* Please report the recorded FACS-Seq fitted mean (log10) for UGUCCU .
*A* -0.0961

*Q* Please report the recorded FACS-Seq fitted mean (log10) for AGUUUA .
*A* -0.489

*Q* Please report the recorded FACS-Seq fitted mean (log10) for CGGUGA .
*A* -0.266

*Q* Please report the recorded FACS-Seq fitted mean (log10) for AGCAAU .
*A* -0.834

*Q* Please report the recorded FACS-Seq fitted mean (log10) for AGGAUC .
*A* -0.0729

*Q* Please report the recorded FACS-Seq fitted mean (log10) for GAAUUG .
*A* -0.422

*Q* Please report the recorded FACS-Seq fitted mean (log10) for AAACUG .
*A* -0.426
